Listed here are compounds together with their documented pIC50.
Biological target: full length SGK1 (Homo sapiens)
Construct: 125 μM full length SGK1 (Life Technologies Part #PR7358A); purchased Life Technologies PR7358A
Sequence (O00141 1-431): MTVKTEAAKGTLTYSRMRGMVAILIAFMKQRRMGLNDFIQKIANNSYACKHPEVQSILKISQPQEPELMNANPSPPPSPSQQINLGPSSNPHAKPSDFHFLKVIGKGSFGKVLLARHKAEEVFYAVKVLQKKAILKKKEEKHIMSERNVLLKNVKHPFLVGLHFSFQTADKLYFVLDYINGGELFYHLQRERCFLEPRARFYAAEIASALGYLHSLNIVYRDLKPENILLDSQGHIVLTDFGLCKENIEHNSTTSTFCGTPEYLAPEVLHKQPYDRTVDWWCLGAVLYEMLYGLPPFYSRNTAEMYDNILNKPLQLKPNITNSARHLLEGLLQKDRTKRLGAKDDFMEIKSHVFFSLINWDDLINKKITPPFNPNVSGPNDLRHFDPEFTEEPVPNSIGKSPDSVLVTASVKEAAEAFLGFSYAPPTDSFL
Test: SGK1 inhibition Assay A (Caliper LabChip electrophoretic separation of fluorescent peptide substrate and phosphorylated product)
Assay type: biochemical
Details: Assay A; 20 μM ATP, 40 min incubation; read-out: SGK1 IC50
pIC50: −log10 of the molar value. Where a name gives a salt, the structure may show the parent alone.

| compound | pIC50 |
| --- | --- |
| CN(C)CCOc1cc(C(F)F)sc1C(=O)N[C@@H]1CCCN(c2cc(-c3ccnc(C(F)F)c3)n3ncnc(N)c23)C1 | 8.30 |
| CN1CCC(Oc2cc(C(F)F)sc2C(=O)N[C@@H]2CCCN(c3cc(-c4ccc(C#N)c(F)c4)n4ncnc(N)c34)C2)CC1 | 8.52 |
| CN(C)CCOc1cc(Cl)sc1C(=O)N[C@@H]1CCCN(c2cc(C3=CCN(C(=O)C4CCCOC4)C3)n3ncnc(N)c23)C1 (stereo partly drawn) | 7.85 |
| CS(=O)(=O)c1ccc(-c2cc(N3CCC[C@@H](NC(=O)C4CC5(CCC5)C4)C3)c3c(N)ncnn23)cc1 | 6.74 |
| CN(C)CCOc1cc(Cl)sc1C(=O)N[C@@H]1CCCN(c2cc(-c3ccc4nnnn4c3)n3ncnc(N)c23)C1 | 8.00 |
| CC(=O)N1CC=C(c2cc(N3CCC[C@@H](NC(=O)c4cccnc4OCCN4CCN(C)CC4)C3)c3c(N)ncnn23)C1 | 6.94 |
| CC(=O)N1CC=C(c2cc(N3CCC[C@@H](NC(=O)c4ccc(C#N)s4)C3)c3c(N)ncnn23)C1 | 8.15 |
| Nc1ncnn2c(-c3ccnc(C(F)F)c3)cc(N3CCC[C@@H](NC(=O)c4sc(Cl)cc4OCCN4CCC(F)(F)CC4)C3)c12 | 8.05 |
| Nc1ncnn2c(-c3ccc(N4CCOCC4)cc3)cc(N3CCC[C@@H](NC(=O)c4ccc(Cl)s4)C3)c12 [Example 223, TFA] | 6.70 |
| CC(=O)Nc1cccc(-c2cc(N3CCC[C@@H](NC(=O)c4ccc(Cl)s4)C3)c3c(N)ncnn23)c1 | 7.70 |
| CN(C)CCOc1cc(C2CC2)sc1C(=O)N[C@@H]1CCCN(c2cc(-c3cncnc3)n3ncnc(N)c23)C1 | 6.95 |
| CN1CCC(Oc2cc(Cl)sc2C(=O)N[C@@H]2CCCN(c3cc(-c4cncnc4)n4ncnc(N)c34)C2)CC1 | 8.05 |
| C[C@@H]1CN(CCOc2cc(Cl)sc2C(=O)N[C@@H]2CCCN(c3cc(-c4ccnc(C(F)F)c4)n4ncnc(N)c34)C2)C[C@H](C)O1 | 7.92 |
| COC(=O)N1CC=C(c2cc(N3CCC[C@@H](NC(=O)c4sc(C(F)F)cc4OC4COC4)C3)c3c(N)ncnn23)C1 | 8.00 |
| Nc1ncnn2c(-c3ccnc(C(F)F)c3)cc(N3CCC[C@@H](NC(=O)c4sc(Cl)cc4OCCN4CC(F)(F)C4)C3)c12 | 7.72 |
| N#Cc1ccc(-c2cc(N3CCC[C@@H](NC(=O)c4ccc(Cl)s4)C3)c3c(N)ncnn23)s1 [Example 212, TFA] | 8.22 |
| CCn1cc(-c2cc(N3CCC[C@@H](NC(=O)c4sc(Cl)cc4OCCN(C)C)C3)c3c(N)ncnn23)cc(C)c1=O | 7.01 |
| COC(=O)N1CC=C(c2cc(N3CCC[C@@H](NC(=O)c4sc5ccc(F)cc5c4OC4CCNCC4)C3)c3c(N)ncnn23)C1 | 8.15 |
| CS(=O)(=O)c1ccc(-c2cc(N3CCCC(NC(=O)c4ccc(Cl)cc4)C3)c3c(N)ncnn23)cc1 (stereo not drawn) [Example 5, TFA] | 7.14 |
| Cc1cc(N2CCN(C)CC2)c(C(=O)N[C@@H]2CCCN(c3cc(-c4ccnc(F)c4)n4ncnc(N)c34)C2)s1 [Example 199, TFA] | 8.70 |
| CS(=O)(=O)c1ccc(-c2cc(N3CCC[C@@H](NC(=O)Cc4ccccc4)C3)c3c(N)ncnn23)cc1 [Example 14, TFA] | 6.03 |
| CS(=O)(=O)c1ccc(-c2cc(N3CCC[C@@H](NC(=O)c4cnn(CC(F)(F)F)c4)C3)c3c(N)ncnn23)cc1 | 7.28 |
| Cc1ccc(C(=O)N[C@@H]2CCCN(c3cc(C4=CN(S(C)(=O)=O)CC4)n4ncnc(N)c34)C2)s1 | 7.57 |
| CC(=O)N1CC=C(c2cc(N3CCC[C@@H](NC(=O)c4sc(Cl)cc4OC4CC5(CNC5)C4)C3)c3c(N)ncnn23)C1 | 8.30 |
| Nc1ncnn2c(C3=CCN(C(=O)[C@@H]4CCCO4)C3)cc(N3CCC[C@@H](NC(=O)c4ccc(Cl)s4)C3)c12 | 8.10 |
| NC(=O)Cn1cc(-c2cc(N3CCC[C@@H](NC(=O)c4ccc(Cl)s4)C3)c3c(N)ncnn23)nn1 | 6.14 |
| CC(=O)N1CC=C(c2cc(OCCN(C)C)c(C(=O)N[C@@H]3CCCN(c4cc(C5=CCN(C(C)=O)C5)n5ncnc(N)c45)C3)s2)C1 | 7.23 |
